Reference source: ChEMBL document CHEMBL1201862

# System: Malme-3M
# assay.notes: NCI tumour cell line growth inhibition, 48 h
Calls of active or inactive are those of the source. Rule as the data show it: active = GI50 up to about 1.1 µM and inactive = higher.
quantity.kind: GI50

[[record]]
molecule = "Cc1cc(N(C)C)c2ccccc2[n+]1CCCCCCCCCC[n+]1c(C)cc(N(C)C)c2ccccc21.[O-][Cl+3]([O-])([O-])[O-].[O-][Cl+3]([O-])([O-])[O-]"
quantity_kind = "GI50"
recorded_measurement = "11 µM (inactive)"

[[record]]
molecule = "CCN1C2=NC(=O)N(C)C(=O)C2(Cl)C(C(SC)S(=O)(=O)c2ccc(C)cc2)c2ccccc21 (stereo unspecified)"
quantity_kind = "GI50"
recorded_measurement = "47.3 µM (inactive)"


[Q] Value lookup for GI50; key = Cc1c(N/C=C(\C#N)C(=O)c2ccc(Cl)cc2)c(=O)n(-c2ccccc2)n1C
[A] > 100 µM (inactive)

[Q] Value lookup for GI50; key = CCOC(=O)C12CCCC1(O)N(NC(N)=O)C(C)=C2C(=O)OC (stereo unspecified)
[A] > 100 µM (inactive)

[Q] Value lookup for GI50; key = COc1ccccc1/C=C1\CCC(CCN(C)C)(C2=CCCC2)C1=O (stereo unspecified)
[A] 15.7 µM (inactive)
